# target_desc: SHC014
# assay_name: BLI with recombinant Fabs, drawn table of KD (µM)
In this section, each of the binders is paired with its reported pKd.
// pKd here means minus log10 of the molar concentration (mol/L)

{"columns": ["binder", "endpoint_name", "test_result"],
 "data": [
  ["Ab16 Fab (Fab, V domains shown) VH: EVQLQQSGPELVKPGASVKISCKASGYSFNNYYMNWVKQSPEKSLEWIGEINPNSGYTSYNQKFRAKATLTVDKSSTTAYMQLKSLTSEDSAVYYCARYFGNLFAMDFWGQGTSVTVS VL: DILMTQSPSSMSVSLGDTVSITCHASQGIGSNIGWLQQKPGKSFKGLIYLGTNLEDGVPSRFSGSGSGADYSLTISSLESEDFADYYCVQYVQFPYTFGGGTKLEIK", "pKd", 7.05]
]}

// next item, pKd requested
// Ab17 Fab (Fab, V domains shown) VH: EVQLQQSGPELVKPGASVKISCKASGYSFTDYYMNWVKQSPEKSLEWIGEINPNTGGTTYNQKFKAKATLTVDKSSSTAYMQLKSLTSEDSAVYYCARYYGNLYAMDYWGQGTSVTVSS VL: DILMTQSPSSMSVSLGDTVSITCHASQGISSNIGWLQQKPGKSFKGLIYHGTNLEDGVPSRFSGSGSGADYSLTISSLESEDFADYYCVQYVQFPYTLGGGTKLEIK : pKd value = 7.05
